system: 786-0 renal; experiment: NCI-60 one-dose screen, 48 h (100 = growth as untreated, 0 = no growth, -100 = all killed); conditions: 10 µM unless noted
About 83,000 compounds went through this panel and 20% of them were active in at least one assay; those are over-represented in the sample as a whole.
// reported growth per item
quantity: growth (%)

1. COc1c(F)ccc(C(=O)Nc2ccc3nc(NC(=O)C4CCCN(S(=O)(=O)c5cccc(Cl)c5)C4)sc3c2)c1F (stereo not drawn): 61
2. CC(=O)c1cccc(NC(=O)CCC(=O)NS(=O)(=O)c2ccc(C)cc2)c1: 105
3. CSc1ccc(C(=O)Nc2ccc3nnn(/C(C#N)=C/c4ccccn4)c3c2)cc1: -90.3
4. COc1ccc(C(SCCNCc2cc(N(C)C)ccn2)(c2ccccc2)c2ccccc2)cc1: -23.1
5. CC(C)c1ccc2c(N)c(C(=O)Nc3cccc(C(F)(F)F)c3)sc2n1: 67.9
6. Cn1cc(-c2cc(N)n3nc(-c4cn(C)c5ccccc45)cc3n2)c2cc(Br)ccc21: -85
7. COc1ccc(C(=O)Nc2n[nH]c(Nc3ccccc3)c2C#N)cc1: 104
8. CCOC(=O)C1=C(N)N(c2ccccc2)C2=C(C(=O)CC(C)(C)C2)C1c1cccc(Cl)c1Cl (stereo not drawn): 67.7
9. C[C@H](Nc1nc(NCCc2ccccc2)nc2ccccc12)c1ccccc1: -87.3
10. CC(=O)Nc1ccc(-c2nc3cc(-c4ccc(O)cc4)ccc3n2C)cc1: 50.3
11. CC1(C)CC[C@]2(C(=O)O)CC[C@]3(C)C(=CCC4[C@@]5(C)C[C@@H](O)[C@@H]6OC(c7ccc(F)cc7)OC[C@@]6(C)C5CC[C@]43C)C2C1 (stereo partly drawn): 39.6
12. CN(C)CCn1c2ccccc2c2nc3cc4ccccc4cc3nc21: -44.3
13. O=C1CC(Sc2n[nH]c(-c3ccncc3)n2)C(=O)N1c1ccc(Br)cc1 (stereo not drawn): 106
14. COc1cc2nc(SCc3ccccc3)n(-c3ccc(Cl)cc3)c(=O)c2cc1OC: -57.2
15. COc1ccc2oc3c4[nH]c5ccccc5c4c4c(c3c2c1)C(=O)N(C(=O)OC(C)(C)C)C4=O: 11.6
16. Cc1cc(C)cc(NC(=O)Cn2cc(COn3nnc4ccccc43)nn2)c1: 101
17. COc1ccc(-c2nc(SCC(C)C)nc(NCCc3c[nH]c4ccccc34)c2C#N)cc1: 56.6
18. CCN1CCN(Cc2ccc(C(=O)Nc3cccc(C#Cc4cccc5[nH]nc(N)c45)c3)cc2C(F)(F)F)CC1: -98.5
19. C=Cn1cc(C(=O)O)c(=O)c2cc(F)c(N3CCN(c4nccc(-c5nccs5)n4)CC3)cc21: -22.3
20. N#Cc1c(-c2cccc(Cl)c2Cl)cc(-c2ccc3ccccc3c2)[nH]c1=O: -65.1
21. O=C(CCN1C(=O)/C(=C/c2ccc(F)cc2)SC1=S)N1CCOCC1: 67.1
22. COc1cc(/C=C/C(=O)c2nnn(-c3ccc(Cl)cc3)c2C)cc(OC)c1OC: 65.8
23. C=C1CC[C@@H]2[C@]3(C)COC(c4cn[nH]c4-c4ccc(OC)cc4)O[C@@H]3CC[C@@]2(C)[C@@H]1C/C=C1/C(=O)OCC1O (stereo partly drawn): -89.7
24. COC(=O)/C=C/c1cccc2c1C(=O)NC(C)(c1cc3cc4ccccc4cc3oc1=O)N2 (stereo not drawn): 83.9
25. C=C1CCC2C3(C)COC(c4cccs4)OC3CCC2(C)C1CC(Sc1ccccc1)C1=CCOC1=O (stereo not drawn): 91.9
26. CC(=O)c1c(N)c(C#N)cn1-c1ccc(Cl)cc1Cl: 99.2
27. Cc1c(C(=O)NNC(=O)c2ccc(Cl)cc2)nnn1-c1ccc(Cl)cc1: 94.2
28. CC(=O)/C=C/c1cccc2c1C(=O)NC(C)(c1cc3cc(Br)ccc3oc1=O)N2 (stereo not drawn): 33.2
